Could you please report measured IC50 for the items listed next?
Your answer should be a plain number; it is taken to be in µM.

Observed IC50 on Voltage-gated inwardly rectifying potassium channel KCNH2 (Homo sapiens, UniProt Q12809) for CC(C)(C)NC(=O)C1c2ccccc2C(=O)N1Cc1ccccc1-c1ccc(F)cc1 (configuration not stated) , please.
Sequence (Q12809 whole entry): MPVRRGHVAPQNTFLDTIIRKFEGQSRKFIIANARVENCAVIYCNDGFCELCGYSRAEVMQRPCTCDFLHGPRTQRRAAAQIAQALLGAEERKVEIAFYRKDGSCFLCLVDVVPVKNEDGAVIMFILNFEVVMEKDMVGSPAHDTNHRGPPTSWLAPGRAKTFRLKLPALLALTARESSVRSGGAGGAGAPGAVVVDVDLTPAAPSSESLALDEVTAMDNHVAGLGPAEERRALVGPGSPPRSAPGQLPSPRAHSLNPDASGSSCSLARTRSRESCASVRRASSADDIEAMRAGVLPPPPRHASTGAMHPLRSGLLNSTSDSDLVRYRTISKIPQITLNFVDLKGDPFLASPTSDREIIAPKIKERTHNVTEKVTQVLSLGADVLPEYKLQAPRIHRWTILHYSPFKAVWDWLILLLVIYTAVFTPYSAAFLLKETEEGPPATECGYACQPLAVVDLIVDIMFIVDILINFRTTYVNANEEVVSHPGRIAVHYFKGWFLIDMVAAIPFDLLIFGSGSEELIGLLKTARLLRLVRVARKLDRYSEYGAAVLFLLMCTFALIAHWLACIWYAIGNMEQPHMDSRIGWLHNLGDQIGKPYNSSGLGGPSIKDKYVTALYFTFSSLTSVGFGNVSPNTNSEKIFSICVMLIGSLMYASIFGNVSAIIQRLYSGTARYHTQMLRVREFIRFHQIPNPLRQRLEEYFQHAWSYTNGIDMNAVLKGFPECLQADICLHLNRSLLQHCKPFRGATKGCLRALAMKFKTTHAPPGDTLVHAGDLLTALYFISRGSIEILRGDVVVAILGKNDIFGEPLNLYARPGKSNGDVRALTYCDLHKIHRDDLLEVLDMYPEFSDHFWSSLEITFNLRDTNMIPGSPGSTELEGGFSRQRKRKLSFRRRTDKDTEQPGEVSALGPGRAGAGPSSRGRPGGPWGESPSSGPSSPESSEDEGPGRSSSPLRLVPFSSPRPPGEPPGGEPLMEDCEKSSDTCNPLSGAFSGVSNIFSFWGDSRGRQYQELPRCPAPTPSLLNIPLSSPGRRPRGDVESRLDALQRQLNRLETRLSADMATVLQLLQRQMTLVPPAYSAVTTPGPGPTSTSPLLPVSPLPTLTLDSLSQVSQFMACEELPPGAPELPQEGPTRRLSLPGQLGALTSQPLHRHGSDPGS
56

What IC50 appears in the records for this compound with Voltage-gated inwardly rectifying potassium channel KCNH2 (Homo sapiens, UniProt Q12809)? Cc1c(OC(F)F)ccc2c1C(=O)N(Cc1ccccc1-c1ccccc1)C2C(=O)NC(C)(C)C (racemic)
22

Form entry - test system: Voltage-gated inwardly rectifying potassium channel KCNH2 (Homo sapiens, UniProt Q12809); read-out: IC50; compound: CC(C)(C)NC(=O)C1c2ccc(O)cc2C(=O)N1Cc1ccccc1-c1ccccc1 (racemic)
45

Field: IC50 (Voltage-gated inwardly rectifying potassium channel KCNH2 (Homo sapiens, UniProt Q12809)). Entry: CC(C)(C)NC(=O)C1c2ccc(NS(C)(=O)=O)cc2C(=O)N1Cc1ccccc1-c1ccccc1 (racemic)
15
